test: NCI Yeast Anticancer Drug Screen. Data for the mec2-1 strain (AID 157); settings: S. cerevisiae mec2-1 strain, at 5.0 µM (retest, dose inferred, filed as 0.5), hits give high values
The panel holds about 79,000 compounds, 15% with a hit somewhere; the sample as a whole holds those more often.
OBSERVATION_TYPE: growth inhibition (%)
Give bare numbers, in %.

Would you please look over these solved cases?
Consider the compound CN(C)/C(N)=N\c1nc2ccc(Cl)cc2s1 and give its measured growth inhibition.
-4

Consider the compound CCC(C)n1c(C)nc2c(N)cc(C(F)(F)F)cc21 (stereo not given) and give its measured growth inhibition.
3

Consider the compound O=c1c2cnccc2cc2c3ccccc3ccn12 and give its measured growth inhibition.
12

Consider the compound Cc1[nH]nc(C(F)(F)F)c1N=NN1CCOCC1 and give its measured growth inhibition.
89

Okay, here is my list. What is growth inhibition for each of these?
1. S=C(Nc1ccccc1)[S][Sb]([S]C(=S)Nc1ccccc1)[c]1ccccc1
2. C(/C=C/CC=Nc1ccccc1)=Nc1ccccc1
3. CC1=C(C(=O)Nc2ccccc2Cl)C(c2cccc([N+](=O)[O-])c2)C(C(=O)Nc2ccccc2Cl)=C(C)N1
4. CCOC(=O)c1ccc(NC(=O)O/N=C(/Cl)CC)cc1
5. O=C1c2ccccc2C2(O)c3cc4ccccc4cc3OC12O (stereo not given)
6. CCOSc1ccccc1

1: -6; 2: 2; 3: 27; 4: -7; 5: -15; 6: 5

Okay, here is my list. What is growth inhibition for each of these?
1. O=C(c1ccccc1)c1cn(/N=C\c2ccccc2)c(=O)nc1-c1ccccc1
2. O=NNc1nc(-c2ccccn2)nc2ccccc12
3. CCCCCCC(=O)CCCCCC/C=C\CC1OC(=O)C(N)(CO)C1O (stereo not given)

[-13, 7, 45]
